Target: human CD33 L23A (human, UniProt P20138 18-364)
Sequence (P20138 18-364 L23A limits assumed): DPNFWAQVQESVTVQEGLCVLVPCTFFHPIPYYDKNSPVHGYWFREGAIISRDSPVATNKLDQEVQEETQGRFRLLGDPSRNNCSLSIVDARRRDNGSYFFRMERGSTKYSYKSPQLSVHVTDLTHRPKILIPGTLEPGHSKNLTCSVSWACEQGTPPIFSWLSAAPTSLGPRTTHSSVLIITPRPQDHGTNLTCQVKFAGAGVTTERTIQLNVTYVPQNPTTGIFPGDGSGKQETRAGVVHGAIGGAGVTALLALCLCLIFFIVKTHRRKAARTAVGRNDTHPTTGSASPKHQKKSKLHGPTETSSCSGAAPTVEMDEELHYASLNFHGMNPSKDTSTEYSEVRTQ
Test: alanine scan, flow cytometry;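 also: HEK293-T cells transiently expressing single-residue alanine mutants of CD33 (alanine swapped to serine), antibody binding read by fluorescence in duplicate, background-subtracted, expressed relative to wild-type CD33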
property_name: Mean % WT Binding

Sample Refmab #2 (antibody, V domains shown, Full-length format is human IgG1 Fc silent (PG-LALA); The alanine scan used IgG or Fab) VH: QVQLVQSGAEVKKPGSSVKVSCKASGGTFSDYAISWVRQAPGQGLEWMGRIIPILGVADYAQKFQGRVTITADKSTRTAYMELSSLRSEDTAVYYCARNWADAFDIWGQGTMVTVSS VL: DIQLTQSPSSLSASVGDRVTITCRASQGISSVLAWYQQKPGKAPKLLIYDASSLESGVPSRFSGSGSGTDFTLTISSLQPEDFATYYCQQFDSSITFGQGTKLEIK — what was its Mean % WT Binding?
83.4 % WT
